# Tested on: 922993-354-T-J3-PDC complex spheroid viability
# procedure-summary: Anticancer human tumor 922993-354-T-J3-PDC patient-derived endometrial carcinoma cell line growth inhibition [POLQ]
# assay-context: second compound 1 µM; first compound 0.000316 µM; stronger effect = lower value
The following molecules are listed with their measured viability, T/C values.
Numeric answer only, unit % assumed.

Solved cases (5 shown):
molecule | output-unit | viability, T/C
CC[C@@]1(O)C(=O)OCc2c1cc1n(c2=O)Cc2cc3c(CN(C)C)c(O)ccc3nc2-1 + Cc1cccc(N(C)C(=O)C2C(O)CCN2c2nc(C)cc(C(F)(F)F)c2C#N)c1 | % | 104
CC[C@@]1(O)C(=O)OCc2c1cc1n(c2=O)Cc2cc3c(CN(C)C)c(O)ccc3nc2-1 + Nc1ccc(C#CCN(C(=O)Cc2ncc(C(F)(F)F)cc2C(F)(F)F)c2ccc(F)cc2)nn1 | % | 105
Cn1ncnc1[C@H]1c2n[nH]c(=O)c3cc(F)cc(c23)N[C@@H]1c1ccc(F)cc1 + Cc1cccc(N(C)C(=O)C2C(O)CCN2c2nc(C)cc(C(F)(F)F)c2C#N)c1 | % | 107
CC[C@@]1(O)C(=O)OCc2c1cc1n(c2=O)Cc2cc3c(CN(C)C)c(O)ccc3nc2-1 + COC1C(OC(N)=O)C(O)C(Oc2ccc3c(O)c(NC(=O)c4ccc(O)c(CC=C(C)C)c4)c(=O)oc3c2C)OC1(C)C | % | 108
Cn1ncnc1[C@H]1c2n[nH]c(=O)c3cc(F)cc(c23)N[C@@H]1c1ccc(F)cc1 + COC1C(OC(N)=O)C(O)C(Oc2ccc3c(O)c(NC(=O)c4ccc(O)c(CC=C(C)C)c4)c(=O)oc3c2C)OC1(C)C | % | 105

Please turn your attention to the following entry.
[Q] Provide measured viability, T/C value, entry: Cn1ncnc1[C@H]1c2n[nH]c(=O)c3cc(F)cc(c23)N[C@@H]1c1ccc(F)cc1 + Nc1ccc(C#CCN(C(=O)Cc2ncc(C(F)(F)F)cc2C(F)(F)F)c2ccc(F)cc2)nn1
[A] 105

* * *

# System: 922993-354-T-J3-PDC complex spheroid viability
# procedure-summary: Anticancer human tumor 922993-354-T-J3-PDC cell line growth inhibition [POLQ];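 also: spheroids exposed to the agents for one week; 100% = DMSO vehicle control wells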
# assay-context: second compound 3.16 µM; first compound 1 µM; stronger effect = lower value
# Description: Multicellular complex tumor spheroid response to Polymerase (POL) inhibitors (novobiocin, ART-558, RP6685) in combination with a variety of drugs and investigational agents in selected tumor cell lines The POL inhibitors (novobiocin, ART-558, and RP6685) were evaluated both individually and in combination with standard of care and investigational anticancer small molecules within a complex spheroid model of solid tumors. . […]
Mark Met only when viability, T/C stays strictly below 90%. Values equal to the cut-off are Not met.

[Q] Given C=CCn1c(=O)c2cnc(Nc3ccc(N4CCN(C)CC4)cc3)nc2n1-c1cccc(C(C)(C)O)n1 + Nc1ccc(C#CCN(C(=O)Cc2ncc(C(F)(F)F)cc2C(F)(F)F)c2ccc(F)cc2)nn1 , is recorded viability, T/C strictly lower than 90%?
[A] Not met

* * *

The following compounds are listed with their measured viability, T/C values.
# Tested on: 922993-354-T-J3-PDC complex spheroid viability
# procedure-summary: Anticancer human tumor 922993-354-T-J3-PDC cell line growth inhibition [POLQ];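 also: spheroids exposed to the agents for one week; 100% = DMSO vehicle control wells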
# assay-context: second compound 10 µM; first compound 10 µM; stronger effect = lower value
Numeric answer only, unit % assumed.

Solved cases (2 shown):
compound | test-target | viability, T/C / %
O=C(c1cc(Cc2n[nH]c(=O)c3ccccc23)ccc1F)N1CCN(C(=O)C2CC2)CC1 + COC1C(OC(N)=O)C(O)C(Oc2ccc3c(O)c(NC(=O)c4ccc(O)c(CC=C(C)C)c4)c(=O)oc3c2C)OC1(C)C | 922993-354-T-J3-PDC complex spheroid viability | 68.5
O=c1[nH]cc(F)c(=O)[nH]1 + Cc1cccc(N(C)C(=O)C2C(O)CCN2c2nc(C)cc(C(F)(F)F)c2C#N)c1 | 922993-354-T-J3-PDC complex spheroid viability | 13.5

[Q] State viability, T/C (922993-354-T-J3-PDC complex spheroid viability) of Nc1ccn(C2OC(CO)C(O)C2(F)F)c(=O)n1 (stereo not drawn) + Cc1cccc(N(C)C(=O)C2C(O)CCN2c2nc(C)cc(C(F)(F)F)c2C#N)c1 .
[A] 8.92

* * *

The following molecules are listed with their measured viability, T/C values.
# System: 922993-354-T-J3-PDC complex spheroid viability
# procedure-summary: Anticancer human tumor 922993-354-T-J3-PDC cell line growth inhibition [POLQ];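 also: spheroids exposed to the agents for one week; 100% = DMSO vehicle control wells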
# assay-context: second compound 0.316 µM; first compound 0.1 µM; stronger effect = lower value
Numeric answer only, unit % assumed.

Solved cases (3 shown):
molecule | output-unit | viability, T/C
CC1COCCN1c1cc(-c2ccnn2C)c2ccnc(-c3ccn[nH]3)c2n1 (stereo not given) + COC1C(OC(N)=O)C(O)C(Oc2ccc3c(O)c(NC(=O)c4ccc(O)c(CC=C(C)C)c4)c(=O)oc3c2C)OC1(C)C | % | 68.4
Nc1ccn(C2OC(CO)C(O)C2(F)F)c(=O)n1 (stereo not given) + COC1C(OC(N)=O)C(O)C(Oc2ccc3c(O)c(NC(=O)c4ccc(O)c(CC=C(C)C)c4)c(=O)oc3c2C)OC1(C)C | % | 11.6
CC1COCCN1c1cc(C2(O)CC3CCC(C2)O3)c2cnn(-c3ccn[nH]3)c2n1 (stereo not given) + COC1C(OC(N)=O)C(O)C(Oc2ccc3c(O)c(NC(=O)c4ccc(O)c(CC=C(C)C)c4)c(=O)oc3c2C)OC1(C)C | % | 89.6

[Q] Provide measured viability, T/C value, entry: COc1ccc([C@@H](O)c2cc(-c3ncnc4cc(N5CCOCC5)ccc34)c(F)cc2Cl)nn1 + COC1C(OC(N)=O)C(O)C(Oc2ccc3c(O)c(NC(=O)c4ccc(O)c(CC=C(C)C)c4)c(=O)oc3c2C)OC1(C)C
[A] 97

[Q] Provide measured viability, T/C value, entry: CCc1c2c(nc3ccc(O)cc13)-c1cc3c(c(=O)n1C2)COC(=O)[C@]3(O)CC + Nc1ccc(C#CCN(C(=O)Cc2ncc(C(F)(F)F)cc2C(F)(F)F)c2ccc(F)cc2)nn1
[A] 20.3

* * *

# Test system: 922993-354-T-J3-PDC complex spheroid viability
# procedure-summary: Anticancer human tumor 922993-354-T-J3-PDC cell line growth inhibition [POLQ];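 also: spheroids exposed to the agents for one week; 100% = DMSO vehicle control wells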
# assay-context: second compound 3.16 µM; first compound 0.1 µM; stronger effect = lower value
The following compounds are listed with their measured viability, T/C values.
Numeric answer only, unit % assumed.

Solved cases (3 shown):
compound | output-unit | measured
CCCS(=O)(=O)Nc1ccc(F)c(C(=O)c2c[nH]c3ncc(-c4ccc(Cl)cc4)cc23)c1F + Nc1ccc(C#CCN(C(=O)Cc2ncc(C(F)(F)F)cc2C(F)(F)F)c2ccc(F)cc2)nn1 | % | 103
COc1cccc2c1C(=O)c1c(O)c3c(c(O)c1C2=O)CC(O)(C(=O)CO)CC3OC1CC(N)C(O)C(C)O1 (stereo not given) + COC1C(OC(N)=O)C(O)C(Oc2ccc3c(O)c(NC(=O)c4ccc(O)c(CC=C(C)C)c4)c(=O)oc3c2C)OC1(C)C | % | 100
CCc1cc2c(N3CCc4c(cc(Cn5ccnc5)cc4-c4cn(C)nc4C(F)(F)F)C3=O)ccnc2c(OC)n1 + Cc1cccc(N(C)C(=O)C2C(O)CCN2c2nc(C)cc(C(F)(F)F)c2C#N)c1 | % | 107

[Q] Provide measured viability, T/C value, entry: CCc1cc2c(N3CCc4c(cc(Cn5ccnc5)cc4-c4cn(C)nc4C(F)(F)F)C3=O)cc(C)nc2c(OC)n1 + Cc1cccc(N(C)C(=O)C2C(O)CCN2c2nc(C)cc(C(F)(F)F)c2C#N)c1
[A] 104

[Q] Provide measured viability, T/C value, entry: C#Cc1c(F)ccc2cc(O)cc(-c3ncc4c(N5CC6CCC(C5)N6)nc(OCC56CCCN5CC(F)C6)nc4c3F)c12 (stereo not given) + Nc1ccc(C#CCN(C(=O)Cc2ncc(C(F)(F)F)cc2C(F)(F)F)c2ccc(F)cc2)nn1
[A] 106

* * *

# System: 922993-354-T-J3-PDC complex spheroid viability
# procedure-summary: Anticancer human tumor 922993-354-T-J3-PDC cell line growth inhibition [POLQ];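 also: spheroids exposed to the agents for one week; 100% = DMSO vehicle control wells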
# assay-context: second compound 0.1 µM; first compound 0.01 µM; stronger effect = lower value
reported-metric: viability, T/C (%)
Numeric answer only, unit % assumed.

Solved cases (3 shown):
molecule | test-target | output-unit | viability, T/C
C=CCn1c(=O)c2cnc(Nc3ccc(N4CCN(C)CC4)cc3)nc2n1-c1cccc(C(C)(C)O)n1 + COC1C(OC(N)=O)C(O)C(Oc2ccc3c(O)c(NC(=O)c4ccc(O)c(CC=C(C)C)c4)c(=O)oc3c2C)OC1(C)C | 922993-354-T-J3-PDC complex spheroid viability | % | 96.3
CC[C@@]1(O)C(=O)OCc2c1cc1n(c2=O)Cc2cc3c(CN(C)C)c(O)ccc3nc2-1 + Cc1cccc(N(C)C(=O)C2C(O)CCN2c2nc(C)cc(C(F)(F)F)c2C#N)c1 | 922993-354-T-J3-PDC complex spheroid viability | % | 102
C=CCn1c(=O)c2cnc(Nc3ccc(N4CCN(C)CC4)cc3)nc2n1-c1cccc(C(C)(C)O)n1 + Nc1ccc(C#CCN(C(=O)Cc2ncc(C(F)(F)F)cc2C(F)(F)F)c2ccc(F)cc2)nn1 | 922993-354-T-J3-PDC complex spheroid viability | % | 98.5

Please turn your attention to the following entry.
[Q] State viability, T/C (922993-354-T-J3-PDC complex spheroid viability) of C=CCn1c(=O)c2cnc(Nc3ccc(N4CCN(C)CC4)cc3)nc2n1-c1cccc(C(C)(C)O)n1 + Cc1cccc(N(C)C(=O)C2C(O)CCN2c2nc(C)cc(C(F)(F)F)c2C#N)c1 .
[A] 104
